Each entry below carries its reported pKi.
SYSTEM_UNDER_TEST: human FLAP (Homo sapiens (Human))
Sequence (P20292 whole entry): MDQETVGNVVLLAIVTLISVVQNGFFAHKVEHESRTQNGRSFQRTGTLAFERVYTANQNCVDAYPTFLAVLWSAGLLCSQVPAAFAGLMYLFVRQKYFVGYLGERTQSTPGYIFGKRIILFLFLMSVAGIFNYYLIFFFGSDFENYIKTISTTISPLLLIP
ASSAY_TEXT: FLAP binding assay (HTRF format)
REPORTED_CONDITIONS: human FLAP wild type, Table 6 (additional runs)
pKi: −log10 of the molar value.
MEASUREMENT_LABEL: pKi

molecular_string=Nc1cnc(-c2ccc(-c3ccccc3Cl)cc2F)cn1 system_under_test="human FLAP (Homo sapiens (Human))" measurement_label=pKi measured_result=6.75
molecular_string=Nc1cnc(-c2ccc(-c3ccc(Br)cc3F)cc2F)cn1 system_under_test="human FLAP (Homo sapiens (Human))" measurement_label=pKi measured_result=6.85
molecular_string=Nc1ncc(-c2ccc(-c3ccc(C(F)(F)F)cc3Oc3ncccn3)cc2F)cn1 system_under_test="human FLAP (Homo sapiens (Human))" measurement_label=pKi measured_result=8.26
molecular_string=Nc1cnc(Oc2ccccc2-c2ccc(-c3cnc(N)nc3)c(F)c2)nc1 system_under_test="human FLAP (Homo sapiens (Human))" measurement_label=pKi measured_result=7.29
molecular_string=COc1cc(C(F)(F)F)ccc1-c1ccc(-c2cnc(N)cn2)c(F)c1 system_under_test="human FLAP (Homo sapiens (Human))" measurement_label=pKi measured_result=7.71
molecular_string=CNS(=O)(=O)c1ccccc1-c1ccc(-c2cnc3[nH]cc(CO)c3c2)c(F)c1 system_under_test="human FLAP (Homo sapiens (Human))" measurement_label=pKi measured_result=8.57
molecular_string=N#Cc1ccccc1-c1ccc(-c2cnc(N)cn2)c(F)c1 system_under_test="human FLAP (Homo sapiens (Human))" measurement_label=pKi measured_result=6.88
molecular_string=Nc1cnc(-c2ccc(-c3ccc(C(F)(F)F)nc3S(=O)(=O)C3CCOCC3)cc2F)cn1 system_under_test="human FLAP (Homo sapiens (Human))" measurement_label=pKi measured_result=9.52
molecular_string=Nc1cnc(-c2ccc(-c3ccccc3-c3cnn(CCO)c3)cc2F)cn1 system_under_test="human FLAP (Homo sapiens (Human))" measurement_label=pKi measured_result=7.29
molecular_string=Nc1cnc(-c2ccc(-c3ccccc3F)cc2F)cn1 system_under_test="human FLAP (Homo sapiens (Human))" measurement_label=pKi measured_result=6.48
molecular_string=CC(C)(C)NC(=O)c1ccccc1-c1ccc(-c2cnc(N)cn2)c(F)c1 system_under_test="human FLAP (Homo sapiens (Human))" measurement_label=pKi measured_result=6.44
molecular_string=Nc1cnc(-c2ccc(-c3ccc(OC(F)(F)F)cc3F)cc2F)cn1 system_under_test="human FLAP (Homo sapiens (Human))" measurement_label=pKi measured_result=7.27
molecular_string=CC(C)(C)NS(=O)(=O)c1ccccc1-c1ccc(-c2ccc3[nH]ccc3c2)c(F)c1 system_under_test="human FLAP (Homo sapiens (Human))" measurement_label=pKi measured_result=7.55
molecular_string=Nc1ncc(-c2ccc(-c3ccc(C(F)(F)F)nc3S(=O)(=O)C3CCS(=O)(=O)CC3)cc2F)cn1 system_under_test="human FLAP (Homo sapiens (Human))" measurement_label=pKi measured_result=8.20
molecular_string=Nc1ccc(-c2ccccc2-c2ccc(-c3cnc(N)cn3)c(F)c2)cn1 system_under_test="human FLAP (Homo sapiens (Human))" measurement_label=pKi measured_result=8.40
molecular_string=CC(C)(C)NS(=O)(=O)c1ccccc1-c1ccc(-c2cnc(N)cn2)c(F)c1F system_under_test="human FLAP (Homo sapiens (Human))" measurement_label=pKi measured_result=8.64
molecular_string=CC(=O)N1CCC(S(=O)(=O)c2nc(C(F)(F)F)ccc2-c2ccc(-c3cnc(N)cn3)c(F)c2)CC1 system_under_test="human FLAP (Homo sapiens (Human))" measurement_label=pKi measured_result=8.54
